- METHOD SUMMARY: Inhibition of Candida albicans beta-1,3-glucan synthase assessed as [3H]UDPG incorporation after 60 mins by scintillation counting
QUANTITY KIND: IC50 (µg/mL)

>>> result("CN[C@@](C)(CO[C@H]1[C@H](n2ncnc2-c2ccncc2)C[C@@]23COC[C@]1(C)[C@@H]2CC[C@H]1C3=CC[C@@]2(C)[C@H](C(=O)O)[C@@](C)([C@H](C)C(C)C)CC[C@]12C)C(C)(C)C")
0.002

[A] CC(C)[C@@H](C)[C@@]1(C)CC[C@]2(C)[C@H]3CC[C@@H]4[C@@]5(COC[C@@]4(C)[C@@H](OC[C@@H]4CCCN4C)[C@H](n4ncnc4-c4ccncc4)C5)C3=CC[C@@]2(C)[C@@H]1C(=O)O
[B] CC(C)[C@@H](C)[C@@]1(C)CC[C@]2(C)[C@H]3CC[C@@H]4[C@@]5(COC[C@@]4(C)[C@@H](OC[C@H]4CCCN4)[C@H](n4ncnc4-c4ccncc4)C5)C3=CC[C@@]2(C)[C@@H]1C(=O)O
## Input Just tell me: smaller IC50 value, A or B ? // caller expects the label of the chosen entry
## Output B

----------
- METHOD SUMMARY: Inhibition of Candida albicans beta-1,3-glucan synthase assessed as [3H]UDPG incorporation after 60 mins by scintillation counting
QUANTITY KIND: IC50 (µg/mL)

>>> result("CC(C)[C@@H](C)[C@@]1(C)CC[C@]2(C)[C@H]3CC[C@@H]4[C@@]5(COC[C@@]4(C)[C@@H](OC[C@@H]4CCCN4)[C@H](n4ncnc4-c4ccncc4)C5)C3=CC[C@@]2(C)[C@@H]1C(=O)O")
0.018

[P] CC(C)[C@@H](C)[C@@]1(C)CC[C@]2(C)[C@H]3CC[C@@H]4[C@@]5(COC[C@@]4(C)[C@@H](OC[C@H]4CCCN4C)[C@H](n4ncnc4-c4ccncc4)C5)C3=CC[C@@]2(C)[C@@H]1C(=O)O
[Q] CC(C)[C@@H](C)[C@@]1(C)CC[C@]2(C)[C@H]3CC[C@@H]4[C@@]5(COC[C@@]4(C)[C@@H](OC[C@@]4(C)CCCN4)[C@H](n4ncnc4-c4ccncc4)C5)C3=CC[C@@]2(C)[C@@H]1C(=O)O
## Input Which item exceeds the other in IC50, P or Q ? Lab log: write the label of the selected item as the result.
## Output P

----------
- METHOD SUMMARY: Oral bioavailability in mouse
- Format: ADME, organism-based
- ASSAY CONTEXT: in vivo
QUANTITY KIND: bioavailability (%)

[I] CN[C@@](C)(CO[C@H]1[C@H](n2ncnc2-c2ccncc2)C[C@@]23COC[C@]1(C)[C@@H]2CC[C@H]1C3=CC[C@@]2(C)[C@H](C(=O)O)[C@@](C)([C@H](C)C(C)C)CC[C@]12C)C(C)(C)C
[II] CC(C)[C@@H](C)[C@@]1(C)CC[C@]2(C)[C@H]3CC[C@@H]4[C@@]5(COC[C@@]4(C)[C@@H](OC[C@@]4(C)CCCN4)[C@H](n4ncnc4-c4ccncc4)C5)C3=CC[C@@]2(C)[C@@H]1C(=O)O
[III] CC(C)[C@@H](C)[C@@]1(C)CC[C@]2(C)[C@H]3CC[C@@H]4[C@@]5(COC[C@@]4(C)[C@@H](OC[C@H]4CCCN4C)[C@H](n4ncnc4-c4ccncc4)C5)C3=CC[C@@]2(C)[C@@H]1C(=O)O
[IV] CC(C)[C@@H](C)[C@@]1(C)CC[C@]2(C)[C@H]3CC[C@@H]4[C@@]5(COC[C@@]4(C)[C@@H](OC[C@H]4CCCN4)[C@H](n4ncnc4-c4ccncc4)C5)C3=CC[C@@]2(C)[C@@H]1C(=O)O
## Input // ascending sort on bioavailability for the entries above Return value: ordered labels per request.
## Output IV, II, III, I
(IV: 1.7%, II: 4.7%, III: 23%, I: 42%)

Each recorded value in this set is attributed to ChEMBL document CHEMBL2163260.
